TARGET OR TEST SYSTEM: human PD-1 expressed on cells (UniProt Q15116 25-288)
Sequence (Q15116 25-288): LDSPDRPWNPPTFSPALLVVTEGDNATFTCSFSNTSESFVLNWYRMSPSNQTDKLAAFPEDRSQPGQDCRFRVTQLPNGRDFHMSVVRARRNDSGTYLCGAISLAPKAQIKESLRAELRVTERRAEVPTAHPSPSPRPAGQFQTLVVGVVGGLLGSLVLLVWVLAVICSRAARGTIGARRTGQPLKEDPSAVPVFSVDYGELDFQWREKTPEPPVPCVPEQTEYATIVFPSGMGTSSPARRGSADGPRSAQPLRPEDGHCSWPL
PROTOCOL TEXT: FACS binding
PARAMETER: EC50 (nM)

AS25457_HCAb (antibody, V domains shown) VH: QVQLVESGGGSVQAGGSLRLSCAVSGISISPDCMGWFRQAPGKKREAVATIFTNTRSTRYGDSVKGRFTSSQGNAKNTLYLQMDSLKLDDTATYYCAARYTGGDCFNLEPVAWRFWGQGTQVTVSS
4.04
AS25117_HCAb (antibody, V domains shown) VH: EVQLAESGGGSVQAGGSLRLSCVISGTSISPDCMGWFRQAPGKKREAVMSIFTNTGSTRYGDSVKGRFTSSQGNAKNTLYLQMDSLKLDDTATYYCAARYTGGDCFNLEPLAWRFWGQGTQVTVSS
3.22
AS25064_HCAb (antibody, V domains shown) VH: QVQLVESGGGSVQAGGSLRLTCAATGYSWRPDCMGWYRQAAEKEREGVAVIDADGITSYADAAKGRFTISRDNNKITLYLQMLKPDDTGMYVCVVGWRVSSGGNCQFNDYWGQGTQVTVSS
5.46
AS25222_HCAb (antibody, V domains shown) VH: QIQLVESGGGSVQAGGSLRLSCAVTGISISPDCMGWFRQAPGKKREAVATIFTNTASTRYGDSVKGRFTSSQGNGKNTLYLQMDSLNVDDTATYYCAARYTGGNCFNLEPLAWHFWGQGTQVTVSS
4.59
